Entries and their Percent Effect values follow.
target: Aspartate--tRNA(Asp/Asn) ligase (Mycobacterium tuberculosis (strain ATCC 25618 / H37Rv)); test: Assay for Asp RNA synthetase-1 from Mycobacterium tuberculosis; assay type: functional; parameters: scale not given: in the data most compounds retested in dose-response had high values; settings: 30 µM
A number alone suffices; assume %.

COMPOUND	DISPLAY_UNIT	Percent Effect
Cc1nn(C)c(C)c1CC(=O)N1CCCC(n2ccnc2)C1 (centres undefined)	%	-4.83
Cc1ccc(C(=O)Nc2cn[nH]c2)cn1	%	1.01
CSc1ccc(Cl)c(C(=O)N2CCCC(CNS(C)(=O)=O)C2)c1 (centres undefined)	%	2.82
O=C(NC1CC1)[C@@H]1CCO[C@@H]2CCN(C3CCOCC3)C[C@@H]21	%	-3.45
CN(C)[C@@H]1CCN(C(=O)c2ccsc2)[C@H]1Cc1cnn(C)c1	%	-0.691

Percent Effect reading for O=C(c1ccccn1)N1CCc2nc(-c3cnccn3)nc(O)c2C1 : -1.53

Percent Effect reading for Cc1nc(NCC2CC2)nc2c1COCC21CCN(C)C1 (centres undefined) : -1.49

Percent Effect reading for c1cnnc(N2CCCC2CNCc2nc(-c3ccsc3)no2)c1 (centres undefined) : -0.433

Percent Effect reading for CCn1cnnc1CNC(=O)N1CCC(Cc2cccnc2)CC1 : -1.93

Percent Effect reading for CCN1CCN(CC(C)(O)c2cccc(C(F)(F)F)c2)CC1 (centres undefined) : 3.38

Percent Effect reading for COc1ccc2nnc(CCCC(=O)NCc3cccn3C)n2n1 : -1.89

Percent Effect reading for CN(C)c1ncc2c(n1)C1(CCN(Cc3ccccc3)C1)COC2 (centres undefined) : -5.72

Percent Effect reading for COc1ccc2c(c1)C1(CCN(Cc3ccoc3)CC1)N(C)CC2 : 0.685
